Target: hM1 mAChR (Homo sapiens)
Sequence (P11229 whole entry): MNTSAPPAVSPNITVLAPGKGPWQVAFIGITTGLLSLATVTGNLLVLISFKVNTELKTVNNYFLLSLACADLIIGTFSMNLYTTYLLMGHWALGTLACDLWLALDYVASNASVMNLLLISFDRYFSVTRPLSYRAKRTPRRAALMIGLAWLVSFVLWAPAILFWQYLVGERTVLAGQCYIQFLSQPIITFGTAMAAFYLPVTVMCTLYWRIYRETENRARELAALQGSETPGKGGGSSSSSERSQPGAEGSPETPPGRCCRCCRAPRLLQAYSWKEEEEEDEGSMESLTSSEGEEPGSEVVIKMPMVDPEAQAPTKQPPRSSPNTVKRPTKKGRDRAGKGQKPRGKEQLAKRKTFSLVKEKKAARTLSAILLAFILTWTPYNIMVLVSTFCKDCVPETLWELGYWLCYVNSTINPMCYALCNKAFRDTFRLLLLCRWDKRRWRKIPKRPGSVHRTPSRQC
Experiment: IP1 accumulation assay in FlpInCHO-hM1
Assay type: cell-based
Conditions: 1 and 10 μM modulator, compared with BQCA, CHO-M1 cells
outcomeMeasure: cluster of two-point profile (change in baseline versus change in pEC50)

Before answering, review these 4 worked examples.
>>> df
                                   compound  reportedresult
0  O=C(O)c1ccc(COc2ccccc2-c2cc(=O)n(C3CCCCC3O)cn2)cc1 (stereo not drawn) [Compound 14a]       cluster 1
1  CNC(=O)c1ccc(COc2ccccc2-c2cc(=O)n(C3CCCCC3O)cn2)cc1 (stereo not drawn) [Compound 15b]       cluster 4
2  CN(C)C(=O)c1ccc(COc2ccccc2-c2cc(=O)n(C3CCCCC3O)cn2)cc1 (stereo not drawn) [Compound 15a]       cluster 3
3  NC(=O)c1ccc(COc2ccccc2-c2cc(=O)n(C3CCCCC3O)cn2)cc1 (stereo not drawn) [Compound 14b]       cluster 2

Field: cluster of two-point profile (change in baseline versus change in pEC50) (hM1 mAChR (Homo sapiens)). Entry: O=C(c1ccc(COc2ccccc2-c2cc(=O)n(C3CCCCC3O)cn2)cc1)N1CCCCC1 (stereo not drawn) [Compound 15e]
cluster 3

Field: cluster of two-point profile (change in baseline versus change in pEC50) (hM1 mAChR (Homo sapiens)). Entry: NS(=O)(=O)c1ccc(COc2ccccc2-c2cc(=O)n(C3CCCCC3O)cn2)cc1 (stereo not drawn)
cluster 2

Field: cluster of two-point profile (change in baseline versus change in pEC50) (hM1 mAChR (Homo sapiens)). Entry: CCN(CC)C(=O)c1ccc(COc2ccccc2-c2cc(=O)n(C3CCCCC3O)cn2)cc1 (stereo not drawn) [Compound 15c]
cluster 3

Field: cluster of two-point profile (change in baseline versus change in pEC50) (hM1 mAChR (Homo sapiens)). Entry: CCNC(=O)c1ccc(COc2ccccc2-c2cc(=O)n(C3CCCCC3O)cn2)cc1 (stereo not drawn) [Compound 15d]
cluster 4

====

For each entry below, report its log α (logarithm of the binding cooperativity between ACh and allosteric modulator) value.
Biological target: hM1 mAChR (Homo sapiens)
Assay: Radioligand equilibrium binding assay
Conditions: 3H-NMS 0.5 nM, allosteric ternary complex model
Just the number, please, no unit after it.

Requested read-out: log α (logarithm of the binding cooperativity between ACh and allosteric modulator). Entry: Cc1ccc(COc2ccccc2-c2cc(=O)n(C3CCCCC3O)cn2)cn1 (stereo not shown)
1.30

Requested read-out: log α (logarithm of the binding cooperativity between ACh and allosteric modulator). Entry: Cn1cc(-c2ccc(COc3ccccc3-c3cc(=O)n(C4CCCCC4O)cn3)cc2)cn1 (stereo not shown)
1.07

Requested read-out: log α (logarithm of the binding cooperativity between ACh and allosteric modulator). Entry: COc1ccc(Cn2cc(C(=O)O)c(=O)c3ccccc32)cc1 [BQCA, reference compound]
1.26

Requested read-out: log α (logarithm of the binding cooperativity between ACh and allosteric modulator). Entry: NC(=O)c1ccc(COc2ccccc2-c2cc(=O)n(C3CCCCC3O)cn2)cc1 (stereo not shown) [Compound 14b]
1.11

Requested read-out: log α (logarithm of the binding cooperativity between ACh and allosteric modulator). Entry: CCN(CC)C(=O)c1ccc(COc2ccccc2-c2cc(=O)n(C3CCCCC3O)cn2)cc1 (stereo not shown) [Compound 15c]
0.81

Requested read-out: log α (logarithm of the binding cooperativity between ACh and allosteric modulator). Entry: O=c1cc(-c2ccccc2OCc2ccccc2)ncn1C1CCCCC1O (stereo not shown)
1.14

Requested read-out: log α (logarithm of the binding cooperativity between ACh and allosteric modulator). Entry: CCNC(=O)c1ccc(COc2ccccc2-c2cc(=O)n(C3CCCCC3O)cn2)cc1 (stereo not shown) [Compound 15d]
1.27
